Biological target: T1, human glucose-dependent insulinotropic polypeptide receptor (GIPR), expressed on CHO-K1 cells (human, UniProt P48546 22-466)
T1 sequence (looked up): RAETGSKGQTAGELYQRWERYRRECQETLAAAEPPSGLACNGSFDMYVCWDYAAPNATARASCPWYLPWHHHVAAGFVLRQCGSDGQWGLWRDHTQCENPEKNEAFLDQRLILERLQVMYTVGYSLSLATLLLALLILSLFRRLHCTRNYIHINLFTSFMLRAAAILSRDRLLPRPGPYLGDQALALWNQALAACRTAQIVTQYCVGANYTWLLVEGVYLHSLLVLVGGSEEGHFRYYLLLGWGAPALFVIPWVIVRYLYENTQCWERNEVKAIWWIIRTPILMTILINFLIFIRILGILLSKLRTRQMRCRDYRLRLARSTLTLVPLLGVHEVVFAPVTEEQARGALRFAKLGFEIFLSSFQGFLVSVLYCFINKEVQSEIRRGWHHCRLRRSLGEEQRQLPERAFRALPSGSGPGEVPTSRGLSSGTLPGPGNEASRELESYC
Assay: cell-based or functional assay
Numbered stars: 1 amine (or outer) side, 2 acyl side, 3 side chain; on linkers, the order of the positions; unused ones are H or OH. Square brackets hold non-standard residues; d marks the D form. Primed or numbered codes have the meaning given here. Side chains are listed from the residue outwards. Ends that are not written are not given here. * marks the point of attachment. C18 = C18 fatty acid (C16-C22 fatty acids conjugated via γGlu/8-amino-3,6-dioxaoctanoic acid spacers); C18″ = C18 fatty acid moiety (of 2OEG-γGlu-C18, K*); γGlu = O=C(O)[C@H](CCC(=O)[*:2])N[*:1]; αMeR = C[C@](N)(CCCNC(=N)N)C(=O)O; AEEA = NCCOCCOCC(=O)O; Aib = CC(C)(N)C(=O)O
measured_property: Ratio vs. GLP-1R

binder: Y[Aib]QGTFTSDYSK([AEEA-AEEA-γGlu-C18″])LLDYMMQRDFVQWLLEGGPSSGAPPPS-NH2 [Peptide No. 5-3D]
result: 105
//
binder: Y[Aib]QGTFTSDYSK([AEEA-AEEA-γGlu-C18″])LLDYMMQQDFVQWLLEGGPSSGAPPPS-NH2 [SEQ ID NO. 100]
result: 103
//
binder: Y[Aib]QGTFTSDYSK([AEEA-AEEA-γGlu-C18″])LLDYMMQ[αMeR]DFVQWLLEGGPSSGAPPPS-NH2 [SEQ ID NO. 101]
result: 65
//
binder: Y[Aib]QGTFTSDYSK([AEEA-AEEA-γGlu-C18])LLDYMMQHDFVQWLLEGGPSSGAPPPS-NH2 [SEQ ID NO. 99]
result: 3240
